target: von Willebrand factor full length (Homo sapiens, UniProt P04275 SEQ:764-2813); experiment: filter; 16% bound at 100 nM vWF; conditions: tags: Calbiochem 681300; label: 5'-32P
MEASURE_NAME: Kd (nM)

1. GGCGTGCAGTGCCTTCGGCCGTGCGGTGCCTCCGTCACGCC (ssDNA, 2'-OMe C32, 3'-idT) [ARC1225] | 11
